Hey, just so you know, these numbers are from patent US8791132B2.

# assay-system: rat adrenergic α1B receptor (Rattus norvegicus)
# Construct: rat adrenergic α1B receptor obtained from Wistar Rat liver; from tissue; host or cells: Wistar rat liver
# Sequence (P15823 1-515): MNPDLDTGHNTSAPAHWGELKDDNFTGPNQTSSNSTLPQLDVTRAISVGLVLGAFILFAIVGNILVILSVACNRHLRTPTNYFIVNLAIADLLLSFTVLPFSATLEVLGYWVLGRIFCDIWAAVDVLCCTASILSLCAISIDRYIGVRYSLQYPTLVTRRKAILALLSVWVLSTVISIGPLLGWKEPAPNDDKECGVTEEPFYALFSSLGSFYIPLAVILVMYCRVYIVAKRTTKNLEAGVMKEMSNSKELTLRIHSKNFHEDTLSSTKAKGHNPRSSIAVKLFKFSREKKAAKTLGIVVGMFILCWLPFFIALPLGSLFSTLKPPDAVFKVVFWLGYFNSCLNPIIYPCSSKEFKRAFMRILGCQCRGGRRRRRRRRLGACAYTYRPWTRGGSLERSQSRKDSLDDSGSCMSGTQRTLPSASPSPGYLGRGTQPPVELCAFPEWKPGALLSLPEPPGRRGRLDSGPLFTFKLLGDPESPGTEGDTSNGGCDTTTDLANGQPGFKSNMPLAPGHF
# experiment-summary: Radioligand binding, adrenergic α1B ([3H]Prazosin)
# experimental-conditions: read-out: Percentage inhibition of ligand binding, Adrenergic α1B (0.1 μM), compound at 0.1 μM; [3H]Prazosin; repeat datapoints each shown
I'd appreciate it if you could label each record using inhibition at 0.1 µM and these ranges: low-valued: < 20%; mid-valued: ≥ 20% and < 70%; high-valued: ≥ 70%

| compound | class-name |
| --- | --- |
| Cc1ccc2c(c1)c1c(n2CC(CC(=O)O)c2ccncc2)CCN(C)C1 (stereo not drawn) [II-228] | low-valued |
| C/C(=C/n1c2c(c3cc(C)ccc31)CN(C)CC2)c1cccc(F)c1 [compound 236] | high-valued |
| Cc1ccc(CCn2c3c(c4c(Cl)ccc(F)c42)CN(C)CC3)cn1 [II-248] | low-valued |
| Cc1ccc(CCn2c3c(c4c(Br)ccc(Cl)c42)CN(C)CC3)cn1 [II-247] | low-valued |
| Cc1ccc2c(c1)c1c(n2CC(O)c2ccncc2)CCN2CCCC12 (stereo not drawn) [129a] | high-valued |

Would you mind sorting Cc1ccc2c(c1)c1c(n2CC(O)c2ccnc(C(=O)O)c2)CCN2CCCC12 (stereo not drawn) [compound 168] into the appropriate category?
mid-valued

Which category fits this record: Cc1ccc2c(c1)c1c(n2CC(O)c2ccc(C(N)=O)nc2)CCN(C)C1 (stereo not drawn) [144a]
mid-valued

Looking at Cc1ccc2c(c1)c1c(n2CC(N=[N+]=[N-])c2ccc(F)cc2)CCN2CCCC12 (stereo not drawn) [V-23] , which class would you pick?
high-valued

State the class of the compound shown: C/C(=C\n1c2c(c3cc(Cl)ccc31)C1CCC(C2)N1C)c1cccnc1 (stereo not drawn) [compound 97]
low-valued

Which of the defined bands does the recorded inhibition at 0.1 µM of Cc1ccc2c(c1)c1c(n2CC(C)(O)c2cccnc2)CCN(C)CC1 (single isomer, unassigned) [II-135b] sit within?
mid-valued

----------
Record form. Attribute: Percentage inhibition of ligand binding, Adrenergic α2A (0.1 μM). Fill in for each entry.
# assay-system: human recombinant adrenergic α2A receptor (Homo sapiens, UniProt P08913)
# Construct: expressed in transfected cells; host or cells: insect Sf9 cells
# Sequence (P08913 1-465): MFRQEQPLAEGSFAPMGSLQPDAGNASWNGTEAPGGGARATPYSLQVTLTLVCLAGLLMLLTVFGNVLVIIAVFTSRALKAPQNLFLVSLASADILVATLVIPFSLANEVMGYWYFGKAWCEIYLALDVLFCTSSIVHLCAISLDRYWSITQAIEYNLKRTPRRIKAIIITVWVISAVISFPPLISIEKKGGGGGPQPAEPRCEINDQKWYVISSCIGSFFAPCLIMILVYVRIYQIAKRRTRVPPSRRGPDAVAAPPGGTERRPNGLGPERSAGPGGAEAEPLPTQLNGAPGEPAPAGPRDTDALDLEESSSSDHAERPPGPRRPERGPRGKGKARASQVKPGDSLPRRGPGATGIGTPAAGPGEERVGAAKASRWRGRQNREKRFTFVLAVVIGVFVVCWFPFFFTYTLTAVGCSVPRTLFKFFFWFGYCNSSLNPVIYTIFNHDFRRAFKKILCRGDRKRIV
# experiment-summary: Radioligand binding, adrenergic α2A ([3H]MK-912)
# experimental-conditions: compound at 0.1 μM; [3H]MK-912; repeat datapoints each shown; 0.1 µM
Answer format: number, then unit.

| compound | result |
| --- | --- |
| Cc1ccc2c(c1)c1c(n2CC(C)(O)c2cccnc2)CCN(C)C1C (single isomer, unassigned) [II-152c] | 1% |

Items follow; give Percentage inhibition of ligand binding, Adrenergic α2A (0.1 μM) for each.
1. Cc1ccc2c(c1)c1c(n2CC(O)c2ccc(C)nc2)CCN2CCCC12 (single isomer, unassigned) [198a]
2. Cc1ccc2c(c1)c1c(n2CC(O)c2ccncc2C)CCN(C)C1 (single isomer, unassigned) [133b]
3. Cc1ccc2c(c1)c1c(n2CC(N)c2ccncc2)CCN(C)CC1 (stereo not drawn) [compound 154]
4. Cc1ccc2c(c1)c1c(n2CC(C)(O)c2cccnc2)CC(C)N(C)C1 (single isomer, unassigned) [II-146b]
5. Cc1cnc2c(c1)c1c(n2CC(C)(O)c2ccc(C)nc2)CCN2CCCC12 (single isomer, unassigned) [148a]

["10%", "39%", "15%", "5%", "−5%"]
